Tested on: MEK6
Construct: gene MAP2K6
Details: concentration: 1 μM, replicates: in singlicate; n = 1;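 also: KINOMEscan kinase panel screen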
The compounds listed here are annotated with their %Inh.
measurement label: %Inh (%)

compound | target under test | quantitative result
CC(C)(C)OC(=O)NC1CCCN(c2cc(-c3ccc4c(N)n[nH]c4c3)nc(N)n2)C1 (centres unmarked) | MEK6 | 0
COC(=O)c1c(-c2ccccc2)c2cc(Cl)ccc2c(=O)n1Cc1ccc(S(C)(=O)=O)cc1 | MEK6 | 4
NC(=O)c1sc(-n2cnc3ccccc32)cc1OCc1ccccc1F | MEK6 | 0
Nc1nc(-c2ccccn2)c(-c2ccnc3ccccc23)s1 | MEK6 | 10
CSc1ccc(NC2=C(c3ccccc3Cl)C(=O)NC2=O)cc1 | MEK6 | 76

---

System: AAK1
Conditions: concentration: 1 μM, replicates: in singlicate; n = 1
measurement label: %Inh (%)

item smiles | quantitative result
CC(C)(C)c1ccc(-n2cnc3c(N)ncnc32)cc1 | 1
FC(F)(F)c1ccc(-c2nn3ncccc3c2-c2ccnc(Nc3cccc(C(F)(F)F)c3)n2)cc1 | 1
Nc1nc(-c2ccccn2)c(-c2ccnc3ccccc23)s1 | 1

---

Tested on: MAK
Conditions: concentration: 1 μM, replicates: in singlicate; n = 1
measurement label: %Inh (%)

molecule | target under test | quantitative result
OCCOCCn1ccc2ncnc(Nc3ccc(Oc4cccc(Cl)c4)c(Cl)c3)c21 | MAK | 0
CC(C)N1CCC(n2cnc(-c3ccc(F)cc3)c2-c2ccnc(N)n2)CC1 [SB-223132] | MAK | 0
CS(=O)(=O)CCNCc1nc(-c2ccc3ncnc(Nc4ccc(OCc5cccc(F)c5)c(Cl)c4)c3c2)cs1.Cl [GW583340] | MAK | 23
Cc1ccc(NC(=O)c2cccc(C#N)c2)cc1-c1ccc(C(=O)Nc2ccncc2)cc1 [GSK1398463] | MAK | 36
Nc1nccc2scc(-c3ccc4c(c3)CCN4C(=O)Cc3cc(F)ccc3F)c12 [GSK2587663] | MAK | 8
O=C(Nc1ccccc1F)NC1CCN(c2ccnc(Nc3ccc(F)cc3)n2)C1 (stereo not drawn) [GSK1379722] | MAK | 12

---

Tested on: PCTK1
Construct: gene CDK16
Settings: concentration: 1 μM, replicates: in singlicate; n = 1

molecule | %Inh [%]
OCCOCCn1ccc2ncnc(Nc3ccc(Oc4cccc(Cl)c4)c(Cl)c3)c21 | 0
O=C(c1ccc(-c2cc(-c3c[nH]nc3-c3ccccn3)ccn2)cc1)N1CCCC1 [GW792479] | 0
Fc1cccc(COc2ccc(Nc3ncnc4cc[nH]c34)cc2Cl)c1 | 5
CN1c2ccc(-c3ccc(C(=O)NCCO)cc3)cc2-c2[nH]ncc2S1(=O)=O | 0
Cc1cccc(-c2nc(Nc3ccc4[nH]nnc4c3)c3ccccc3n2)n1 [GW867587] | 0
CCC(CC)(CC)n1cnc2c(N)ncnc21 [SKF-97620] | 2
Fc1ccc(-c2ncn(CCCNCc3ccccc3)c2-c2ccncc2)cc1 | 7
Nc1nc(-c2ccc3c(N)n[nH]c3c2)cc(N2CCC[C@@H](C(=O)Nc3ccccc3)C2)n1.O=C(O)C(F)(F)F.O=C(O)C(F)(F)F [GSK2288359] | 14
C[C@@H]1CCN(C(=O)CO)C[C@@H]1N(C)c1ncnc2[nH]ccc12 | 0
Nc1nccc2scc(-c3ccc4c(c3)CCN4C(=O)Cc3cc(F)ccc3F)c12 [GSK2587663] | 0
FC(F)(F)c1cc(Nc2nccc(-c3c(-c4ccc(Cl)cc4)nn4ncccc34)n2)ccc1Cl [GW829351] | 0
Fc1cccc(COc2ccc(Nc3ncnc4sc(-c5ccc[nH]5)cc34)cc2Cl)c1 [GW707818] | 0
Nc1nc(-c2ccccn2)c(-c2ccnc3ccccc23)s1 [GW548057] | 0
Cn1cc(-c2ccc3c(c2)CCN3C(=O)Cc2cccc(C(F)(F)F)c2)c2c(N)ncnc21 [GSK2606414] | 4

---

Tested on: AMPK-alpha1
Construct: gene PRKAA1
Details: concentration: 1 μM, replicates: in singlicate; n = 1
The compounds listed here are annotated with their %Inh.

compound | %Inh
CSc1ccc(NC2=C(c3ccccc3Cl)C(=O)NC2=O)cc1 | 25%
CC(=O)Nc1n[nH]c2ncc(-c3ccccc3)cc12 | 10%
COc1ccc(-c2oc3ncnc(N)c3c2-c2ccc(OC)cc2)cc1 | 0%
CN1c2ccc(-c3ccc(C(=O)NCCO)cc3)cc2-c2[nH]ncc2S1(=O)=O | 16%
CCCc1ccc(S(=O)(=O)NC2CCN(c3ccnc(Nc4ccc(OC)cc4)n3)C2)cc1 (stereo not shown) | 0%
Cc1ccc(C)c(NC(=O)NCCNc2ccnc(Nc3ccc(F)cc3)n2)c1 | 10%
C[C@H]1CC[C@@H](C(=O)Nc2ccccc2)CN1c1cc(-c2ccc3c(N)n[nH]c3c2)nc(N)n1 | 0%

---

System: CSF1R-autoinhibited
Settings: concentration: 1 μM, replicates: in singlicate; n = 1
The compounds listed here are annotated with their %Inh.

item smiles | target under test | %Inh
Nc1nccc2scc(-c3ccc4c(c3)CCN4C(=O)Cc3cc(F)ccc3F)c12 | CSF1R-autoinhibited | 0%
CS(=O)(=O)CCNCc1nc(-c2ccc3ncnc(Nc4ccc(OCc5cccc(F)c5)c(Cl)c4)c3c2)cs1.Cl | CSF1R-autoinhibited | 0%
COc1ccc(-c2oc3ncnc(N)c3c2-c2ccc(OC)cc2)cc1 | CSF1R-autoinhibited | 70%

---

System: PLK4
Conditions: concentration: 1 μM, replicates: in singlicate; n = 1

compound | %Inh / %
CC(=O)Nc1n[nH]c2ncc(-c3ccccc3)cc12 [SB-548492] | 8
Cl.Cn1ccc(-c2cccc(Nc3ccnc4cc(-c5nccs5)ccc34)c2)n1 [GW525701] | 5
Nc1nc(-c2cccnc2)c(-c2ccnc3ccccc23)s1 [GW684083] | 0
CCCc1ccc(S(=O)(=O)NC2CCN(c3ccnc(Nc4ccc(OC)cc4)n3)C2)cc1 (stereo not shown) [GSK1379737] | 0

---

Test system: SRPK1
Conditions: concentration: 1 μM, replicates: in singlicate; n = 1
The compounds listed here are annotated with their %Inh.
measurement label: %Inh (%)

item smiles | measurement label | quantitative result
Fc1ccc(Nc2nccc(-c3c(-c4ccc(Cl)cc4)nn4ncccc34)n2)cc1F | %Inh | 0
OCCOCCn1ccc2ncnc(Nc3ccc(Oc4cccc(Cl)c4)c(Cl)c3)c21 | %Inh | 0
CCc1nc(-c2cccc(C)c2)c(-c2ccnc(NC(=O)c3ccccc3)c2)s1 | %Inh | 0
CC(C)(C)c1ccc(-n2cnc3c(N)ncnc32)cc1 | %Inh | 29
Clc1ccc(-c2cc(-c3c[nH]nc3-c3ccccn3)ccn2)cc1 | %Inh | 0
COc1ccc(NC(=O)Nc2ccc(C)c(-c3ccc(C(=O)Nc4ccncc4)cc3)c2)cc1 | %Inh | 0
O=C(Nc1n[nH]c2nc(-c3ccco3)c(Br)cc12)c1ccc(CN2CCCC2)cc1.O=C(O)[C@H](O)[C@@H](O)C(=O)O | %Inh | 2
Cc1ccc(O)cc1Nc1cc(C(F)(F)F)nc2ccc(-c3ccncc3)cc12 | %Inh | 7
FC(F)(F)c1ccc(-c2nn3ncccc3c2-c2ccnc(Nc3cccc(C(F)(F)F)c3)n2)cc1 | %Inh | 0
O=C(c1ccc(-c2cc(-c3c[nH]nc3-c3ccccn3)ccn2)cc1)N1CCCC1 | %Inh | 0
Cn1ccc2ncnc(Oc3ccc(NC(=O)Nc4cccnc4)c(Cl)c3)c21 | %Inh | 12
Fc1ccc(-c2ncn(CCCNCc3ccccc3)c2-c2ccncc2)cc1 | %Inh | 31

---

System: BLK
Conditions: concentration: 1 μM, replicates: in singlicate; n = 1

compound | %Inh [%]
Fc1ccc(Nc2nccc(-c3c(-c4ccc(Cl)cc4)nn4ncccc34)n2)cc1F [GW829058] | 0
Fc1cccc(COc2ccc(Nc3ncnc4cc[nH]c34)cc2Cl)c1 | 1
COC(=O)c1cccc(NC(=O)NCCNc2ccnc(Nc3ccc(F)cc3)n2)c1 [GSK1379883] | 0
Cl.Cl.c1ccc(-c2cc3ccncc3cc2OC2CCNCC2)cc1 [GSK1122999] | 41
Cl.c1ccc(Cn2ccc3cc(Nc4ncnc5ccccc45)ccc32)cc1 [GW275568] | 0
N#Cc1ccc(Oc2ccc(Nc3ncnc4cc[nH]c34)cc2Cl)cc1 | 28
CN1CCC(n2cnc(-c3ccc(F)cc3)c2-c2ccnc(NC3CCNCC3)n2)CC1 [SB-229482] | 10
CS(=O)(=O)CCNCc1ccc(-c2ccc3ncnc(Nc4ccc(OCc5ccccc5)c(Cl)c4)c3c2)o1.Cl [GW574783] | 49

---

System: MRCKB
Construct: gene CDC42BPB
Conditions: concentration: 1 μM, replicates: in singlicate; n = 1
The compounds listed here are annotated with their %Inh.

item smiles | target under test | %Inh, %
NC(=O)c1sc(-n2cnc3ccccc32)cc1OCc1ccccc1F | MRCKB | 0
CCn1c(-c2ccncc2)nc2cnccc21 | MRCKB | 0
Nc1nc(-c2ccc3c(N)n[nH]c3c2)cc(N2CCCCC2)n1 | MRCKB | 0
CNc1nccc(-c2c(-c3ccc(F)cc3)ncn2C2CCN(C)CC2)n1 | MRCKB | 5
